The reported measurements were obtained from the supplement of paper PMC6555819.

- System: VDR homodimer (NR concentration 270 nM)
- assay.summary: PBM binding z-score (relative to random genomic background probes); higher = stronger binding; sequences stand for … in GC…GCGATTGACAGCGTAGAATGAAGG
Overview of reported PBM binding z-score across a group of sequences:
measurement.kind: PBM binding z-score

input_sequence=ATCGAAAGGTCGAGGTGACTATAGAGAAAGGGAA reported_value=0.269
input_sequence=CCTATTAGTTGACCATAAGGGCGACCGAAGCTCG reported_value=0.694
input_sequence=CGTCCAAGGTCAAAGGTCAGTGAAGAGATGACGG reported_value=4.06
input_sequence=CCTACTGGGCCAAGGTGATTGATCAGTCAAAGCA reported_value=-0.782
input_sequence=ATCTCTAGGTAACAAGTTCAGCGAAAGAGAGGAC reported_value=3
